Reference for the values: patent US20160340683A1

Test system: isolated microspores of Triticale (variety Sunray)
Protocol: CPP delivery of GUS enzyme into isolated microspores, GUS staining
Format: cell-based
Experimental parameters: GUS enzyme cargo:CPP 1:4, 1 hour at 37° C., three repeats
Protocol: Triticale line Sunray grown in a growth cabinet with a photoperiod of 19 h day (intensity 300 μE m-2 s-1), and temperature 18-15° C. (day-night) with a relative humidity at about 70% was used as the donor plant material. […] Awns were removed with scissors in a laminar flow hood. […] After counting the cells using a haemocytometer, aliquots of 100,000 cells in 200 μl volume were prepared in 2 ml microcentrifuge tubes to be ready for transduction. […]
Measure name: Average Transduction Efficiency
Numeric answer plus unit only.

Sample answers from the record:
RKKRRQRRRRKKRRQRRR (TAT2) [18 amino acid dimer of the PTD of HIV Tat, reference compound] | 17.50%
KRRRSWRRRRSRTRQRRRRSRRRRRRRR [CPP41] | 21.17%
RRSGRRQRRRRRRRRKR [CPP66] | 23.38%
RRGWRWRSAPRGGSRRRRRRRR [CPP12] | 5.25%
RRSLLSRRIRRRLRRRPKPRRRRRRR [CPP46] | 9.31%
RRRRRRRRRRVRFDSRR [CPP7] | 16.63%

Log: isolated microspores of Triticale (variety Sunray), sequence RRRRRRRRHGRR [CPP24] , Average Transduction Efficiency = 18.77%

* * *

System: isolated microspores of Triticale (variety Sunray)
Protocol: CPP delivery of GUS enzyme into isolated microspores, GUS staining
Type: cell-based
Experimental parameters: GUS enzyme cargo:CPP 1:4, 1 hour at 37° C., three repeats
Measure name: Average Transduction Efficiency (%)
Hi! Could you send only the number? It should be in %, unit omitted.

RRRGIKPNAKRRRRRRRR [CPP23] | 0

The recorded Average Transduction Efficiency for RKQPGRKPGVRTARPKRSKKSQLKK [CPP58] is 0

The recorded Average Transduction Efficiency for KRKPKGGDAAEGSEKRKPKKKK [CPP16] is 0

The recorded Average Transduction Efficiency for RRIRRRLRRRPKPRRRRRRR [CPP17] is 46.54

The recorded Average Transduction Efficiency for RRRVGRRAPRRRRR [CPP51] is 0

The recorded Average Transduction Efficiency for KRKKSGKKKKIGRFLSRLVGAEKRR [CPP9] is 5.79

The recorded Average Transduction Efficiency for RRDGVPRRRRRRRHMGRQR [CPP27] is 2.06

The recorded Average Transduction Efficiency for RRFRRTAPRAAGEARGLRRLRKSR [CPP57] is 5.77
